- Test system: PC-3
- experiment_description: Cytotoxicity against human PC-3 cells treated for 72 hrs by MTT assay
- Type: functional, cell-based
- applied_conditions: PC-3, 72 h
IC50 strictly under 70 µM means yes (1); at 70 µM or over means no (0).

compound_structure | cat
Clc1ccc2c(Nc3ccc(CN4CCCC4)cc3)ccnc2c1 | yes (1)
Clc1ccc(-c2cc(Nc3ccnc4cc(Cl)ccc34)ccc2CN2CCCC2)cc1 | yes (1)
Clc1ccc2c(Nc3ccc(CN4CCCCC4)c(-c4ccccc4)c3)ccnc2c1 | no (0)
Clc1ccc2c(Nc3ccc(CN4CCOCC4)c(-c4ccccc4)c3)ccnc2c1 | yes (1)
CCN(CC)Cc1ccc(Nc2ccnc3cc(Cl)ccc23)cc1 | no (0)
Clc1ccc2c(Nc3ccc(CN4CCCCC4)cc3)ccnc2c1 | no (0)

###

- Tested on: Pseudomonas aeruginosa
- experiment_description: Antimicrobial activity against Pseudomonas aeruginosa ATCC 27853 incubated for 18 to 20 hrs
- Type: functional
- applied_conditions: time 18-20 hrs
Where a SMILES comes first, the peptide text is derived from it. [ ]: non-standard residue; d: D form. Pro(cis-4-OPh) = O=C(O)[C@@H]1C[C@H](Oc2ccccc2)CN1; Pro(cis-4-CF3) = O=C(O)[C@@H]1C[C@H](C(F)(F)F)CN1

molecule | MIC (µM)
CC[C@H](C)[C@H](NC(=O)[C@H](CCCNC(=N)N)NC(=O)CNC(=O)[C@H](CC(C)C)NC(=O)[C@H](Cc1ccccc1)NC(=O)[C@H](CCCCN)NC(=O)[C@H](CO)NC(=O)[C@H](Cc1ccccc1)NC(=O)[C@H](Cc1c[nH]c2ccccc12)NC(=O)[C@H](CCC(N)=O)NC(=O)[C@@H]1C[C@H](C(F)(F)F)CN1C(=O)[C@@H](NC(=O)[C@@H](N)Cc1ccccc1)C(C)C)C(=O)N[C@@H](CC(C)C)C(N)=O (H-FV[Pro(cis-4-CF3)]QWFSKFLGRIL-NH2) | 25
CC[C@H](C)[C@H](NC(=O)[C@H](CCCNC(=N)N)NC(=O)CNC(=O)[C@H](CC(C)C)NC(=O)[C@H](Cc1ccccc1)NC(=O)[C@H](CCCCN)NC(=O)[C@H](CO)NC(=O)[C@H](Cc1ccccc1)NC(=O)[C@H](Cc1c[nH]c2ccccc12)NC(=O)[C@H](CCC(N)=O)NC(=O)[C@@H]1C[C@H](Oc2ccccc2)CN1C(=O)[C@@H](NC(=O)[C@@H](N)Cc1ccccc1)C(C)C)C(=O)N[C@@H](CC(C)C)C(N)=O (H-FV[Pro(cis-4-OPh)]QWFSKFLGRIL-NH2) | 50

###

- Tested on: Escherichia coli
- experiment_description: Antimicrobial activity against Escherichia coli ATCC 25922 incubated for 18 to 20 hrs
- Type: functional
- applied_conditions: time 18-20 hrs
*1 amine or outer side, *2 acyl side, *3 side chain or, on linkers, in order; H or OH if unused. Where a SMILES comes first, the peptide text is derived from it. [ ]: non-standard residue; d: D form. Pro(trans-4-cHex) = O=C(O)[C@@H]1C[C@@H](C2CCCCC2)CN1; Pro(trans-4-Ph) = O=C(O)[C@@H]1C[C@@H](c2ccccc2)CN1; Pro(cis-4-OPh) = O=C(O)[C@@H]1C[C@H](Oc2ccccc2)CN1; Pro(cis-4-CF3) = O=C(O)[C@@H]1C[C@H](C(F)(F)F)CN1; Pro(4R-Bn) = O=C(O)[C@@H]1C[C@@H](Cc2ccccc2)CN1; X1 = CS[C@H]1C[C@@H](C(=O)[*:2])N([*:1])C1; Pro(cis-4-F) = O=C(O)[C@@H]1C[C@H](F)CN1; Pro(4S-NH2) = N[C@@H]1CN[C@H](C(=O)O)C1
MIC for assorted compounds

compound | MIC
CC[C@H](C)[C@H](NC(=O)[C@H](CCCNC(=N)N)NC(=O)CNC(=O)[C@H](CC(C)C)NC(=O)[C@H](Cc1ccccc1)NC(=O)[C@H](CCCCN)NC(=O)[C@H](CO)NC(=O)[C@H](Cc1ccccc1)NC(=O)[C@H](Cc1c[nH]c2ccccc12)NC(=O)[C@H](CCC(N)=O)NC(=O)[C@@H]1C[C@H](Oc2ccccc2)CN1C(=O)[C@@H](NC(=O)[C@@H](N)Cc1ccccc1)C(C)C)C(=O)N[C@@H](CC(C)C)C(N)=O (H-FV[Pro(cis-4-OPh)]QWFSKFLGRIL-NH2) | 25 µM
CC[C@H](C)[C@H](NC(=O)[C@H](CCCNC(=N)N)NC(=O)CNC(=O)[C@H](CC(C)C)NC(=O)[C@H](Cc1ccccc1)NC(=O)[C@H](CCCCN)NC(=O)[C@H](CO)NC(=O)[C@H](Cc1ccccc1)NC(=O)[C@H](Cc1c[nH]c2ccccc12)NC(=O)[C@H](CCC(N)=O)NC(=O)[C@@H]1C[C@H](F)CN1C(=O)[C@@H](NC(=O)[C@@H](N)Cc1ccccc1)C(C)C)C(=O)N[C@@H](CC(C)C)C(N)=O (H-FV[Pro(cis-4-F)]QWFSKFLGRIL-NH2) | 12.5 µM
CC[C@H](C)[C@H](NC(=O)[C@H](CCCNC(=N)N)NC(=O)CNC(=O)[C@H](CC(C)C)NC(=O)[C@H](Cc1ccccc1)NC(=O)[C@H](CCCCN)NC(=O)[C@H](CO)NC(=O)[C@H](Cc1ccccc1)NC(=O)[C@H](Cc1c[nH]c2ccccc12)NC(=O)[C@H](CCC(N)=O)NC(=O)[C@@H]1C[C@H](SC)CN1C(=O)[C@@H](NC(=O)[C@@H](N)Cc1ccccc1)C(C)C)C(=O)N[C@@H](CC(C)C)C(N)=O (H-FV[X1]QWFSKFLGRIL-NH2) | 12.5 µM
CC[C@H](C)[C@H](NC(=O)[C@H](CCCNC(=N)N)NC(=O)CNC(=O)[C@H](CC(C)C)NC(=O)[C@H](Cc1ccccc1)NC(=O)[C@H](CCCCN)NC(=O)[C@H](CO)NC(=O)[C@H](Cc1ccccc1)NC(=O)[C@H](Cc1c[nH]c2ccccc12)NC(=O)[C@H](CCC(N)=O)NC(=O)[C@@H]1C[C@H](C(F)(F)F)CN1C(=O)[C@@H](NC(=O)[C@@H](N)Cc1ccccc1)C(C)C)C(=O)N[C@@H](CC(C)C)C(N)=O (H-FV[Pro(cis-4-CF3)]QWFSKFLGRIL-NH2) | 12.5 µM
CC[C@H](C)[C@H](NC(=O)[C@H](CCCNC(=N)N)NC(=O)CNC(=O)[C@H](CC(C)C)NC(=O)[C@H](Cc1ccccc1)NC(=O)[C@H](CCCCN)NC(=O)[C@H](CO)NC(=O)[C@H](Cc1ccccc1)NC(=O)[C@H](Cc1c[nH]c2ccccc12)NC(=O)[C@H](CCC(N)=O)NC(=O)[C@@H]1C[C@@H](c2ccccc2)CN1C(=O)[C@@H](NC(=O)[C@@H](N)Cc1ccccc1)C(C)C)C(=O)N[C@@H](CC(C)C)C(N)=O (H-FV[Pro(trans-4-Ph)]QWFSKFLGRIL-NH2) | 12.5 µM
CC[C@H](C)[C@H](NC(=O)[C@H](CCCNC(=N)N)NC(=O)CNC(=O)[C@H](CC(C)C)NC(=O)[C@H](Cc1ccccc1)NC(=O)[C@H](CCCCN)NC(=O)[C@H](CO)NC(=O)[C@H](Cc1ccccc1)NC(=O)[C@H](Cc1c[nH]c2ccccc12)NC(=O)[C@H](CCC(N)=O)NC(=O)[C@@H]1C[C@H](N)CN1C(=O)[C@@H](NC(=O)[C@@H](N)Cc1ccccc1)C(C)C)C(=O)N[C@@H](CC(C)C)C(N)=O (H-FV[Pro(4S-NH2)]QWFSKFLGRIL-NH2) | 3.12 µM
CC[C@H](C)[C@H](NC(=O)[C@H](CCCNC(=N)N)NC(=O)CNC(=O)[C@H](CC(C)C)NC(=O)[C@H](Cc1ccccc1)NC(=O)[C@H](CCCCN)NC(=O)[C@H](CO)NC(=O)[C@H](Cc1ccccc1)NC(=O)[C@H](Cc1c[nH]c2ccccc12)NC(=O)[C@H](CCC(N)=O)NC(=O)[C@@H]1C[C@@H](Cc2ccccc2)CN1C(=O)[C@@H](NC(=O)[C@@H](N)Cc1ccccc1)C(C)C)C(=O)N[C@@H](CC(C)C)C(N)=O (H-FV[Pro(4R-Bn)]QWFSKFLGRIL-NH2) | 25 µM
CC[C@H](C)[C@H](NC(=O)[C@H](CCCNC(=N)N)NC(=O)CNC(=O)[C@H](CC(C)C)NC(=O)[C@H](Cc1ccccc1)NC(=O)[C@H](CCCCN)NC(=O)[C@H](CO)NC(=O)[C@H](Cc1ccccc1)NC(=O)[C@H](Cc1c[nH]c2ccccc12)NC(=O)[C@H](CCC(N)=O)NC(=O)[C@@H]1C[C@@H](C2CCCCC2)CN1C(=O)[C@@H](NC(=O)[C@@H](N)Cc1ccccc1)C(C)C)C(=O)N[C@@H](CC(C)C)C(N)=O (H-FV[Pro(trans-4-cHex)]QWFSKFLGRIL-NH2) | 50 µM
